Assay: Primary qHTS for inhibitors of nuclear receptor binding SET domain protein 2 (NSD2) in an isogenic RCH-ACV NSD2 p.E1099K mutant (9B) (AID 1645876); also: nearly all actives have a fitted effect of over 70% in size
Conditions: RCH-ACV (leukaemia line) NSD2 E1099K (9B) viability, CellTiter-Glo, 72 h; series mostly up to 44.9 µM
Inconclusive results are not listed. The source made the active and inactive calls. Calls follow the shape of the dose curve; as a rule, active = well fitted inhibition curve with a large enough effect; inconclusive = small, poorly fitted or top-dose-only effect; inactive = flat fitted curve, though single readings scatter.
Answer with one of the outcomes T for active, F for inactive

Task: Dear all, I need the recorded test outcome for COc1nc(OCc2cccc(-c3ccccc3)c2C)ccc1CNCCNC(C)=O , thank you.
Output: T

Task: Dear all, I need the recorded test outcome for O=C1CCc2cc(S(=O)(=O)Nc3cccc(Cl)c3)ccc2N1 , thank you.
Output: F

Task: Dear all, I need the recorded test outcome for O=C(Nc1cnn2ccc(N3CCC[C@@H]3c3cc(F)ccc3F)nc12)N1CC[C@H](O)C1 , thank you.
Output: F

Task: Dear all, I need the recorded test outcome for C[C@@H]1CC(=O)Nc2cccc(-c3cnn(C(C)(C)C)c3)c2N1 , thank you.
Output: T

Task: Dear all, I need the recorded test outcome for O=c1c(-c2ccc(O)cc2)coc2c([C@@H]3O[C@H](CO)[C@@H](O)[C@H](O)[C@H]3O)c(O)ccc12 , thank you.
Output: F

Task: Dear all, I need the recorded test outcome for CCN1C(=O)CNc2ncc(-c3ccc(-c4ncn[nH]4)nc3C)nc21 , thank you.
Output: T

Task: Dear all, I need the recorded test outcome for CC1=NN(c2ccc(C(=O)O)cc2)C(=O)/C1=C/c1ccc(-c2cc(C)c(C)cc2[N+](=O)[O-])o1 , thank you.
Output: F

Task: Dear all, I need the recorded test outcome for Cc1ccc(NC(=O)NCc2ccc3c(c2)CN(C2CCC(=O)NC2=O)C3=O)cc1Cl (stereo not drawn) , thank you.
Output: T

Task: Dear all, I need the recorded test outcome for O=C(CCNC(=O)c1ccc(OC(F)(F)F)cc1)N[C@@H]1CCCc2ccccc21 , thank you.
Output: F

Task: Dear all, I need the recorded test outcome for CC(=O)O/N=C1\C(=O)N(Cc2cc(Cl)ccc2Cl)c2ccc(Cl)cc21 , thank you.
Output: T

Task: Dear all, I need the recorded test outcome for Nc1nccc2c1ncn2[C@@H]1C=C(CO)[C@@H](O)[C@H]1O , thank you.
Output: T

Task: Dear all, I need the recorded test outcome for O=C(Nc1ccccc1)Nc1ccc(-c2ccc(C(=O)[C@@H]3CCC[C@H]3C(=O)O)cc2)cc1 , thank you.
Output: F

Task: Dear all, I need the recorded test outcome for O=C1Cc2cc(C(=O)NC3C[C@H]4CC[C@@H](C3)N4S(=O)(=O)CC3CCN(CCCC(F)(F)F)CC3)c(Cl)cc2N1 (stereo partly drawn) , thank you.
Output: F

Task: Dear all, I need the recorded test outcome for C[C@H]1[C@H](C)CC[C@]2(C(=O)O)CC[C@]3(C)C(=CC[C@@H]4[C@@]5(C)CC[C@H](O)C(C)(C)[C@@H]5CC[C@]43C)[C@H]12 , thank you.
Output: F

These entries and their values trace back to PubChem BioAssay (NCATS).
